Reference source for all entries: patent US20230172867A1

assay name: Pharmacokinetic measurements of H3B-6527 capsules in patients (trial NCT02834780), plasma LC-MS/MS
Type: in vivo, human
condition notes: human, plasma, oral, 300 mg, 300 mg QD, fasted, Day 8; Table 5, nominal times; read-out: Tmax, median (min-max)
quantity: Tmax (h)
Output spec: scalar in h, unitless text.

Tmax reading for `C=CC(=O)Nc1cc(N2CCN(CC)CC2)ccc1Nc1cc(N(C)C(=O)Nc2c(Cl)c(OC)cc(OC)c2Cl)ncn1` : 4

---

assay name: Pharmacokinetic measurements of H3B-6527 capsules in patients (trial NCT02834780), plasma LC-MS/MS
Type: in vivo, human
condition notes: human, plasma, oral, 1000 mg, 1000 mg QD, fed, Day 8; Table 6, actual times after QC; read-out: Half-life, geometric mean (CV%) (converted)
quantity: half-life (h)
Respond with the bare value in h.

half-life reading for C=CC(=O)Nc1cc(N2CCN(CC)CC2)ccc1Nc1cc(N(C)C(=O)Nc2c(Cl)c(OC)cc(OC)c2Cl)ncn1 [H3B-6527] : 6.16
